- tested on: HIV-1 YU2 gp120 (HIV-1 YU2, UniProt P35961 32-498)
- experiment description: SPR
reported metric: k1 (step 1, association) (M⁻¹ s⁻¹)
Just the number in M⁻¹ s⁻¹, nothing appended.

For MVN_G43E/M83R (natural protein) MPNFSHTCSSINYDPDSTILSAECQARDGEWLPTELRLSDHIENIDGELQFGDQNFQETCQDCHLEFGDGEQSVWLVCTCQTRDGEWKSTQILLDSQIDNNDSQLEIG the binder record lists k1 (step 1, association) as 110000

For MVN_Q81K/M83R/G85Q (natural protein) MPNFSHTCSSINYDPDSTILSAECQARDGEWLPTELRLSDHIGNIDGELQFGDQNFQETCQDCHLEFGDGEQSVWLVCTCKTRDQEWKSTQILLDSQIDNNDSQLEIG the binder record lists k1 (step 1, association) as 340000

These measurements were taken from paper PMC5944358.
